Biological target: T1, canine FcRn (canine)
T1 construct: Injected in solution as SPR analyte
Assay: SPR, pH 5.5, FcRn 100-800 nM over captured Fc
ASSAY READOUT: kon (M⁻¹ s⁻¹)
Your answer is read as M⁻¹ s⁻¹, so omit the unit and give the number.

# example entries with known answers
>>> obs_value("canine IgG.B Fc variant N434W with SASA tag (Fc fusion) APEMLGGPSVFIFPPKPKDTLLIARTPEVTCVVVDLDPEDPEVQISWFVDGKQMQTAKTQPREEQFNGTYRVVSVLPIGHQDWLKGKQFTCKVNNKALPSPIERTISKARGQAHQPSVYVLPPSREELSKNTVSLTCLIKDFFPPDIDVEWQSNGQQEPESKYRTTPPQLDEDGSYFLYSKLSVDKSRWQRGDTFICAVMHEALHWHYTQESLSHSPGK")
446000
>>> obs_value("canine IgG.B Fc variant N434H with SASA tag (Fc fusion) APEMLGGPSVFIFPPKPKDTLLIARTPEVTCVVVDLDPEDPEVQISWFVDGKQMQTAKTQPREEQFNGTYRVVSVLPIGHQDWLKGKQFTCKVNNKALPSPIERTISKARGQAHQPSVYVLPPSREELSKNTVSLTCLIKDFFPPDIDVEWQSNGQQEPESKYRTTPPQLDEDGSYFLYSKLSVDKSRWQRGDTFICAVMHEALHHHYTQESLSHSPGK")
411000

GET /values?readout=kon&item= canine IgG.B Fc variant N434Y with SASA tag (Fc fusion) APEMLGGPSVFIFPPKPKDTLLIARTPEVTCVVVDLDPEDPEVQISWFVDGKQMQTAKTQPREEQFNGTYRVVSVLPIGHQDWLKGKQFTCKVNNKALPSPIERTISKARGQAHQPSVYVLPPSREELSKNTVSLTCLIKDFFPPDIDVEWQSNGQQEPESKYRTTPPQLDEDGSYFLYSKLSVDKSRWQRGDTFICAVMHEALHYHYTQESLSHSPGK 520000

src = patent US20230279118A1
